Recorded IC50, one value per entry.
- Study System: purified recombinant human GAC (GLS1) (Homo sapiens, UniProt O94925)
- Sequence (O94925 55-598 isoform O94925-3 limits assumed): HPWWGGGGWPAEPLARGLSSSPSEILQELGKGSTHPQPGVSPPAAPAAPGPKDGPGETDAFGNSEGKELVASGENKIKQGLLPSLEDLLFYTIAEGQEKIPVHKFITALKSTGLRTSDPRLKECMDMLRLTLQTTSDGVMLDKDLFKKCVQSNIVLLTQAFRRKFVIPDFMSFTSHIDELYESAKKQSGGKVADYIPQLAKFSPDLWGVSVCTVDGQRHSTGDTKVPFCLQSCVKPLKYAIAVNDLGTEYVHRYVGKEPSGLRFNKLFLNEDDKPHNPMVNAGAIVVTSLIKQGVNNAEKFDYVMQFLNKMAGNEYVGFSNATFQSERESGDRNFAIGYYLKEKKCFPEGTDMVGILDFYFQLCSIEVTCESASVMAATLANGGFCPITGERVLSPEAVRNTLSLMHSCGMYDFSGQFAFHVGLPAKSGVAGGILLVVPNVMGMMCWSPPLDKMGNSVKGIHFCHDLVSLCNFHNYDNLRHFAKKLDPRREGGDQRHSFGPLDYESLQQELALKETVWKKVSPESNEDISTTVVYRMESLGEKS
- Method Summary: GLS1 Enzymatic Activity Assay (dual-coupled enzymatic assay)
- Description: GLS1 Enzymatic Activity Assay The inhibition of purified recombinant human GAC by varying concentrations of inhibitors is assessed via a dual-coupled enzymatic assay. […] The production of resorufin was monitored on a Perkin Elmer Envision plate reader (excitation 530 nm, emission 590 nm) either in a kinetics or endpoint mode (at 20 minutes). IC50 values were calculated using a four-parameter logistic curve fit.

Example entries begin here.
Compound	IC50
O=C(Cc1cccnc1)Nc1nnc(CCCCc2cc3cc(Cc4ccccc4)[nH]c3nn2)s1 [Example 57]	< 0.1 µM
Cc1ccc(CNC(=O)c2cn(CCCCc3cc4c(-c5ccc6c(c5)OCO6)c(C5CC5)[nH]c4nn3)nn2)cn1 [Example 146]	< 0.1 µM
COC(C)(C)CNC(=O)c1nnc(CCCCc2cc3cc(Cc4ccccc4)[nH]c3nn2)s1 [Example 84]	0.1 to 0.5 µM

Task item: Give its IC50 value. Item: Cc1ccc(CNC(=O)c2cn(CCCCc3cc4cc(-c5cccc(F)c5)[nH]c4nn3)nn2)cn1 [Example 202]
Reply: < 0.1 µM

Task item: Give its IC50 value. Item: O=C(NCC1CC1)c1nnc(CCCCc2cc3cc(Cc4ccccc4)[nH]c3nn2)s1 [Example 77]
Reply: 0.1 to 0.5 µM

Task item: Give its IC50 value. Item: O=C(NCc1cc(OC(F)(F)F)ccc1F)c1cn(CCCCc2cc3cc(C4CCN(C(=O)CC(F)(F)F)CC4)[nH]c3nn2)nn1 [Example 157]
Reply: < 0.1 µM

Task item: Give its IC50 value. Item: O=C(NCc1ccccn1)c1cn(CCCCc2cc3c(-c4ccncc4)c(C4CC4)[nH]c3nn2)nn1 [Example 113]
Reply: < 0.1 µM
